Target: AKR1C3 (Homo sapiens, UniProt P42330)
Sequence (P42330 whole entry): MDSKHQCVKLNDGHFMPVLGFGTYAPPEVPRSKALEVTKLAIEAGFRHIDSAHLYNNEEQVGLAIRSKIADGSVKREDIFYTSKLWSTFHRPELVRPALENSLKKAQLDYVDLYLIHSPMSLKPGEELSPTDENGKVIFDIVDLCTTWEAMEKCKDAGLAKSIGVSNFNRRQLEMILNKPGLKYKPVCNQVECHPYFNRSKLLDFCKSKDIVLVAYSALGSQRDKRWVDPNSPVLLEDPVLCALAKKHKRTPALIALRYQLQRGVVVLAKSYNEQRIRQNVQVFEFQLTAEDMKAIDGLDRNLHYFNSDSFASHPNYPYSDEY
Experiment: Spectrophotometric inhibition assay, 1-acenaphthenol oxidation with NAD+
Assay type: biochemical
Conditions: pH 9.0, screening at 400 μM

Molecule | Target System | inhibition of AKR1C3 (in words)
O=C(O)c1cc(NC(=O)c2ccccc2F)ccc1O | AKR1C3 (Homo sapiens, UniProt P42330) | moderate
O=C(O)c1ccc(CNCc2ccccn2)cc1 | AKR1C3 (Homo sapiens, UniProt P42330) | moderate

====

System: AKR1C1-3
Assay: Isoform profile across the AKR1C enzymes
Type: biochemical, human
Conditions: 1-acenaphthenol oxidation, NAD+, pH 9.0
Endpoint Name: inhibition profile / isoform selectivity on AKR1C enzymes (in words)

Molecule | Target System | Observed
NC(=O)c1ccccc1NC(=O)c1ccncc1 | AKR1C1-3 | low inhibitory effect
Cc1cccc(C(=O)Nc2ccccc2C(N)=O)c1 | AKR1C1-3 | low inhibitory effect
